Species: Rattus norvegicus
Assay: Open TG-GATES - Regimen: Daily Repeat
Assay type: toxicity, organism-based, Sprague-Dawley
Parameters: regimen Daily Repeat, gender Male, age 6 weeks
Settings: in vivo, po, 0 mg/kg, 72 h, tissue Plasma, route gavage, dose level Control, time 3 day
Outcome: rule met for ALP of at least 1000 IU/L; rule not met for anything lower.

CN(C)CCC=C1c2ccccc2CCc2ccccc21 :: rule met
CO[C@H]1/C=C/O[C@@]2(C)Oc3c(C)c(O)c4c(O)c(c(/C=N/N5CCN(C)CC5)c(O)c4c3C2=O)NC(=O)/C(C)=C\C=C\[C@H](C)[C@H](O)[C@@H](C)[C@@H](O)[C@@H](C)[C@H](OC(C)=O)[C@@H]1C :: rule not met
Clc1ccccc1CN1CCc2sccc2C1 :: rule met
COc1ccc2c(c1)c(CC(=O)O)c(C)n2C(=O)c1ccc(Cl)cc1 :: rule met
CCCC(CCC)C(=O)O :: rule met

## Task Is reported ALP greater than or equal to 1000 IU/L here: O=C(O)c1cc(/N=N/c2ccc(S(=O)(=O)Nc3ccccn3)cc2)ccc1O
## Result rule not met

## Task What do you get for CSc1ccc2c(c1)N(CCC1CCCCN1C)c1ccccc1S2 (configuration not stated) ?
## Result rule not met

## Task What do you get for Cn1c(=O)c2[nH]cnc2n(C)c1=O.O ?
## Result rule met

## Task What do you get for NC(=O)N/N=C/c1ccc([N+](=O)[O-])o1 ?
## Result rule met

====

Organism: Rattus norvegicus
Assay: Open TG-GATES - Regimen: Single
Assay type: toxicity, organism-based, Sprague-Dawley
Design: regimen Single, gender Male, age 6 weeks
Conditions: in vivo, po, 0 mg/kg, 9 h, tissue Blood, route gavage, dose level Control
Parameter: Hb. Scope: all listed entries.
Numeric answer only, unit g/dL assumed.

Examples from the recorded data:
COc1ccc(Cc2nccc3cc(OC)c(OC)cc23)cc1OC :: 13.1
O=C(O)c1cn(C2CC2)c2cc(N3CCNCC3)c(F)cc2c1=O :: 12.4
Clc1ccccc1CN1CCc2sccc2C1 :: 13.3
CSc1ccc2c(c1)N(CCC1CCCCN1C)c1ccccc1S2 (stereo not given) :: 13.4

## Task Request the reported Hb associated with NC(=O)N/N=C/c1ccc([N+](=O)[O-])o1
## Result 12.7

====

Species: Rattus norvegicus
Experiment: Open TG-GATES - Regimen: Daily Repeat
Type: toxicity, organism-based, Sprague-Dawley
Design: regimen Daily Repeat, gender Male, age 6 weeks
Conditions: in vivo, po, 0 mg/kg, […], route gavage, dose level Control, time 28 day
Measured parameter: TERMINAL_BW (g)
Numeric answer only, unit g assumed.

Examples from the recorded data:
O=C(O)c1cn(C2CC2)c2cc(N3CCNCC3)c(F)cc2c1=O :: 358.5
CCCC(CCC)C(=O)O :: 396.1
CN(C)CCC=C1c2ccccc2CCc2ccccc21 :: 406.1
Cn1c(=O)c2[nH]cnc2n(C)c1=O.O :: 378.5

Next, consider the following compound.
## Task Request the reported TERMINAL_BW associated with CC(=O)Oc1ccccc1C(=O)O
## Result 389.9

====

Parameter: LIVER. Scope: all listed entries.
Species on record: Rattus norvegicus
Experiment: Open TG-GATES - Regimen: Single
Type: toxicity, organism-based, Sprague-Dawley
Parameters: regimen Single, gender Male, age 6 weeks
Details: in vivo, po, 0 mg/kg, 3 h, tissue Liver, route gavage, dose level Control
Numeric answer only, unit g assumed.

Examples from the recorded data:
NC(=O)N1c2ccccc2C=Cc2ccccc21 [CARBAMAZEPINE] :: 10
O=C(O)c1cc(/N=N/c2ccc(S(=O)(=O)Nc3ccccn3)cc2)ccc1O :: 9.9

## Task Request the reported LIVER associated with CC(=O)Oc1ccccc1C(=O)O
## Result 9.9

## Task What do you get for COc1ccc(Cc2nccc3cc(OC)c(OC)cc23)cc1OC ?
## Result 10.2
